Assay: physchem
Settings: pH 7.4
# solubility at 18 h listing for each entry below

Solved entries (count: 2):
CC(C)c1nnc(NC(=O)NC23CC4CC(CC(C4)C2)C3)o1 = ~10 µg/mL
Nc1ccc(S(=O)(=O)c2ccc(NC(=O)NC34CC5CC(CC(C5)C3)C4)cc2)cc1 = 0.9 µg/mL

// query solubility at 18 h value for entry Cc1cc(NC(=O)NC2C3CC4CC(C3)CC2C4)no1 (centres unmarked)
~25 µg/mL

Consider the molecule `Cc1nnc(NC(=O)NC23CC4CC(CC(C4)C2)C3)o1` and give its measured solubility at 18 h.
~10 µg/mL

# solubility at 18 h lookup, item `Cc1cc(NC(=O)NC23CC4CC(CC(C4)C2)C3)no1`
~25 µg/mL

====

Molecular target: recombinant human sEH (Homo sapiens, UniProt P34913)
Sequence (P34913 whole entry): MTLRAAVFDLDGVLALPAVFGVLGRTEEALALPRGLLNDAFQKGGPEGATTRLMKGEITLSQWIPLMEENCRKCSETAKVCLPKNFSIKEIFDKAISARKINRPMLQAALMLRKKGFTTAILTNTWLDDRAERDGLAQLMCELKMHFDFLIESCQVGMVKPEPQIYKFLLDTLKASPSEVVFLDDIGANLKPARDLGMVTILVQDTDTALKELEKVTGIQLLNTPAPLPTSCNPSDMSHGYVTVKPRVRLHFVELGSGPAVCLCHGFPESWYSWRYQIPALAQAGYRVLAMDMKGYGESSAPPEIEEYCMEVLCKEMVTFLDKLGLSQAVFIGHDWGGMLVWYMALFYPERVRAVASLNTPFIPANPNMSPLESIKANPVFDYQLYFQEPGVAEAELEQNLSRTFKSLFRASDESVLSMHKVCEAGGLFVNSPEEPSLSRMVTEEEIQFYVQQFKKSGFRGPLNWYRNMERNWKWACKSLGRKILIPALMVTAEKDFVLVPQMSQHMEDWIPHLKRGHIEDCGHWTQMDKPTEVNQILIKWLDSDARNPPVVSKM
Test: Human soluble epoxide hydrolase assay
Format: biochemical
result_type: IC50 (nM)
Give the number; nM is assumed, so skip it.

Fill in the blank: the reported IC50 of `Nc1ccc(S(=O)(=O)c2ccc(NC(=O)NC34CC5CC(CC(C5)C3)C4)cc2)cc1` is ____.
0.7

// provenance: paper PMC3780361
